Molecular target: T1, Human MAGEB2 (Melanoma-associated antigen B2) (human, UniProt O15479 1-319)
T1 construct: Intracellular antigen detected by IHC in FFPE material: CHO cells transfected with human MAGEB2 (mCherry vector with Myc/DDK tags, or ORF without tags)
T1 sequence: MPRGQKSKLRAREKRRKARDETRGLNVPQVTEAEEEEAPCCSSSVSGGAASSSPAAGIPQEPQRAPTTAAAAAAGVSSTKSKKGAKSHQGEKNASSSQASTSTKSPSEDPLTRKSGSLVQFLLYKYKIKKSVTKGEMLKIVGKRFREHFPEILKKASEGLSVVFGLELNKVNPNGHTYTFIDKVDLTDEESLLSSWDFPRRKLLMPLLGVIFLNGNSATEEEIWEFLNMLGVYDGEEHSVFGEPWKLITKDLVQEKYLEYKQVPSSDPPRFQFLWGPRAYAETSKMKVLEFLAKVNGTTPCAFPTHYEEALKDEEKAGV
Experiment: IHC on FFPE U20S cells (endogenous MAGEB2)
OUTCOME MEASURE: IHC % Frequency (%)
Give the quantity in %, number only.

Q: # get_value(readout='IHC % Frequency', item= 1I14 (antibody, V domains shown, also called MAGE-B2 (1i14)) VH: QSVEESGGRLVTPGTPLTLTCTISGFSLSSYAMSWVRQAPGKGLEWIGSIGGGGSAVYASWAKGRFTISKTSTTVDLRITSPTTEDTAMYFCGRGFYSIDLWGPGTLVTVSS VL: DVVMTQTPASVEATVGGTVTIKCQSSQSVYDNNALAWYQQNAGQRPRLLIYGASTLASGVPSRFSASGSGTEFTLTISDLECADAATYYCQCTYYVSSYQNDFGGGTEVVVKG )
A: 70
